What normalised response was measured for each of the following?
- System: MDA-MB-453
- test_name: normalised response (% of control), CellTiter-Glo; higher = more viable cells (100 = DMSO, 0 = benzethonium chloride kill control)
- run_parameters: incubation time: 72 h
Give bare numbers, in %.

Provide each entry's normalised response from the list below.
1. COc1cc(O)c2c(c1)/C=C/C[C@H](O)[C@H](O)C(=O)/C=C\C[C@H](C)OC2=O [(5Z)-7-Oxozeaenol] (1 nM)
2. CNC(=O)c1ccc(N2C(=S)N(c3ccc(C#N)c(C(F)(F)F)c3)C(=O)C23CCC3)cc1F [RD162] (10 nM)
3. COc1cc2ncnc(Nc3ccc(F)c(Cl)c3)c2cc1OCCCN1CCOCC1 [Gefitinib] (1000 nM)
4. COc1cc(O)c2c(c1)/C=C/C[C@H](O)[C@H](O)C(=O)/C=C\C[C@H](C)OC2=O [(5Z)-7-Oxozeaenol] (1000 nM)
5. COc1cc2c(NC3CCN(C(C)C)CC3)nc(N3CCC(F)(F)CC3)nc2cc1OCCCN1CCCC1 [UNC0642] (10 nM)
6. S=P(N1CC1)(N1CC1)N1CC1 [Thio-TEPA] (50 nM)
7. N#Cc1ccc(COC[C@H]2O[C@@H](n3c(NCc4ccc(Cl)c(Cl)c4)nc4c(N)ncnc43)[C@H](O)[C@@H]2O)cc1 (1000 nM)
8. Cc1[nH]c2ccccc2c1CCNCc1ccc(/C=C/C(=O)NO)cc1 [Panobinostat] (1 nM)

1. 106
2. 104
3. 95.2
4. 118
5. 92
6. 98
7. 98.4
8. 92.8

Record request: normalised response value, item NC(=O)c1ccc(I)c([N+](=O)[O-])c1 [Iniparib] (1000 nM) 89.2
